Assay: splicing luciferase reporter signal modulators, primary screen, spliceosome inhibition project, cell-based, HEK293, splice +/- reporter (AID 1101);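 further: HEK293 cells carrying a splicing-competent luciferase reporter gene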
Conditions: luminescence, 24 h, higher = more signal, called active from +8 up or from −8 down
Reported values of z-score for individual entries
Please give the numeric answer without any surrounding text.

Consider the reported z-score for these compounds:
>  <compound>
COCCOC(=O)N1C(=O)[C@@]2(c3cc(C#Cc4ccc(OC)cc4)ccc31)[C@H](C(=O)N1CCN(c3ncccn3)CC1)[C@H]1C(=O)O[C@H](c3ccccc3)[C@H](c3ccccc3)N1[C@@H]2c1ccc(OCCO)cc1

>  <measured parameter>
z-score

>  <result value>
0.688

$$$$
>  <compound>
CC(=O)OC[C@H]1O[C@@H](ON=C(C)CCN2CCc3nc(-c4ccccc4)c(-c4ccccc4)cc3C2)[C@H](OC(C)=O)[C@@H](OC(C)=O)[C@@H]1OC(C)=O

>  <measured parameter>
z-score

>  <result value>
0.522

$$$$
>  <compound>
CC(C)=NOCc1cccc(-c2cc(-c3ccccc3)no2)c1

>  <measured parameter>
z-score

>  <result value>
0.342

$$$$
>  <compound>
CO[C@@H]1COC(=O)CC=C[C@@H](C)[C@@H]2C=C[C@H](O)[C@@H](COC(=O)CCC[C@H]1C)O2

>  <measured parameter>
z-score

>  <result value>
-1.09

$$$$
>  <compound>
COC(=O)C1=C(C)[C@@H](O)[C@@H](C)[C@H](c2c(OC)c(OC)c(C)c(OC)c2OC)O1

>  <measured parameter>
z-score

>  <result value>
-0.361

$$$$
>  <compound>
CN1C(=O)C2C=CC(C(O)c3ccc(Br)cc3)N(N(c3ccccc3)c3ccccc3)C2C1=O (configuration not stated)

>  <measured parameter>
z-score

>  <result value>
0.605

$$$$

Now for the compound whose z-score we want.
// recorded z-score for C=COC[C@H]1CN2[C@@H](CC[C@@H](C)[C@@H]2c2ccc(Br)cc2)C(=O)O1 : -1.09

###

# composite z-score per record follows
Tested on: XIP peptide (Xip251-270) binding
Experiment: small-molecule binders of XIP peptide, primary screen, biochemical, small-molecule microarray, fluorescence 635/667 nm, 0.1 µg/mL protein (AID 1182)
Details: fluorescent protein binding, 635 nm, higher = more signal, called active from +8 up or from −8 down
Provide a numeric answer; units are not to be included.

Consider the reported composite z-score for these compounds:
>  <compound>
COCCOC(=O)N1C(=O)[C@@]2(c3cc(C#CCNC(N)=O)ccc31)[C@H](c1ccc(O)cc1)N1[C@H](c3ccccc3)[C@H](c3ccccc3)OC(=O)[C@H]1[C@@H]2C(=O)N1CCCCCCC1

>  <tested on>
XIP peptide (Xip251-270) binding

>  <composite z-score>
0.348

$$$$
>  <compound>
C=CCNC(=O)[C@H]1[C@@H]2C(=O)O[C@@H](c3ccccc3)[C@@H](c3ccccc3)N2[C@@H](c2ccc(O)cc2)[C@]12C(=O)N(C(=O)OCCOC)c1ccc(C#CC3=CCCCC3)cc12

>  <tested on>
XIP peptide (Xip251-270) binding

>  <composite z-score>
0.514

$$$$
>  <compound>
COCCOC(=O)N1C(=O)[C@@]2(c3cc(C#Cc4ccc(OC)cc4)ccc31)[C@H](C(=O)N1CCN(c3ncccn3)CC1)[C@H]1C(=O)O[C@H](c3ccccc3)[C@H](c3ccccc3)N1[C@@H]2c1ccc(OCCO)cc1

>  <tested on>
XIP peptide (Xip251-270) binding

>  <composite z-score>
0.115

$$$$
>  <compound>
CC(C)CON=C1C[C@@H](O)[C@@H](O)[C@@H]2[C@@H]3C(=O)N([C@@H](C)c4ccccc4)C(=O)[C@@H]3CC[C@H]12

>  <tested on>
XIP peptide (Xip251-270) binding

>  <composite z-score>
-0.0093

$$$$
>  <compound>
N#Cc1ccc(NN2C(C(O)c3cc(C(F)(F)F)cc(C(F)(F)F)c3)C=CC3C(=O)N(c4ccccc4)C(=O)C32)cc1 (stereo not drawn)

>  <tested on>
XIP peptide (Xip251-270) binding

>  <composite z-score>
1.67

$$$$
>  <compound>
COC(=O)C1(C)C=C2C(=C(c3ccccc3)C(=O)C2C)CN1 (stereo not drawn)

>  <tested on>
XIP peptide (Xip251-270) binding

>  <composite z-score>
-0.21

$$$$

Measured composite z-score of CC(C)CON=C1[C@H]2CCn3c(=O)n(-c4ccccc4)c(=O)n3[C@H]2[C@H](O)[C@@H]2O[C@H]12 : 0.142

Briefly, composite z-score measured for COCC1=C2[C@@H](CCc3ccccc3)OB(O)C[C@@H]2n2c(=O)n(-c3ccccc3)c(=O)n2C1 : -0.0712

Note to self: composite z-score recorded for CC(C)=CCCC(C)=CCON=C1[C@H]2CCn3c(=O)n(Cc4cc5c(cc4Cl)OCO5)c(=O)n3[C@H]2[C@H](O)[C@@H]2O[C@H]12 was -0.0418

###

Test: compound binding in COS7 lysate, probe aLAP1, primary screen, cell lysate, small-molecule microarray (AID 1124);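 further: lysate comes from COS7 cells expressing LAP1 and is applied at 0.3 µg/mL; score merges spot fluorescence near 667 nm with signal-to-noise over triplicate slides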
Settings: probe aLAP1, fluorescence, higher = more signal
composite z-score vs 0.06: at or above is yes (1), below is no (0).

Some solved cases for reference:
>  <molecule>
CCOC(=O)C1=CCC(c2cc3ccccc3[nH]2)NC1 (stereo not given)

>  <class assignment>
yes (1)

$$$$
>  <molecule>
CCCCCN1CC=CC23O[C@@H]4C=CCOC(=O)[C@@H]4[C@H]2C(=O)N(CCCCCCO)[C@@H]3C1=O (stereo not given in full)

>  <class assignment>
yes (1)

$$$$
>  <molecule>
Cc1ccc(S(=O)(=O)N[C@@H]2COC(=O)[C@H](C)COC(=O)CC=C[C@H]2C)cc1

>  <class assignment>
no (0)

$$$$
>  <molecule>
COc1ccc(O[C@H]2C=C[C@@H](c3ccccc3)O[C@@H]2CON=C[C@@H](C)[C@H](OCc2ccccc2)C(C)C)cc1

>  <class assignment>
no (0)

$$$$

Ask: Quick check: does COCCCNC(=O)[C@@]1(Sc2ccc(C)cc2)CC(=O)N(Cc2ccccc2)[C@@H]1c1ccc(CO)cc1I have composite z-score greater than or equal to 0.06?
Reply: yes (1)

Ask: Reported composite z-score at or above 0.06? CCOC(=O)[C@H](Cc1ccccc1)NC(=O)CCC1CC(OC(=O)NCc2ccc3c(c2)OCO3)CC2(CCCC(COC(=O)NCC(c3ccccc3)c3ccccc3)O2)O1 (stereo not given in full)
Reply: yes (1)

Ask: Could you please find out whether CC(=O)OC[C@H]1O[C@H](CCON=C(C)CCC(=O)OC[C@H]2O[C@H](C#Cc3ccccc3)C=C[C@@H]2Oc2ccc(C)cc2)C=C[C@@H]1OC(C)=O has composite z-score that meets 0.06 or exceeds it?
Reply: yes (1)

Ask: Please tell me: is the molecule CC(C)=CCCC(C)=CCON=C1[C@H]2CCn3c(=O)n(Cc4cc5c(cc4Cl)OCO5)c(=O)n3[C@H]2[C@H](O)[C@@H]2O[C@H]12 at or over 0.06 in terms of composite z-score?
Reply: no (0)

###

Assay: yeast growth modulation, basal conditions, primary screen, YJM789 clinical isolate, OD600, 24 h (AID 1089);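 further: growth of clinical yeast isolate S. cerevisiae YJM 789 seeded 1000 cells per well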
Settings: S. cerevisiae YJM789 growth, higher = more signal, called active from +8 up or from −8 down
Activity calls are given as the source filed them.
Overview of recorded z-score for various molecules

>  <molecule>
CC=CC1=C(CO)[C@H](O)[C@H]2O[C@H]2[C@H]1O

>  <z-score>
0.505 (inactive)

$$$$
>  <molecule>
CC(C)=CCCC(C)=CCON=C1C[C@@H](O)[C@@H](O)[C@@H]2[C@@H]3C(=O)N(C[C@@H]4CCCO4)C(=O)[C@@H]3CC[C@@H]12

>  <z-score>
-0.224 (inactive)

$$$$
>  <molecule>
CN(C)c1ccc(C(O)C2C=CC3C(=O)N(c4ccccc4)C(=O)C3N2Nc2ccccc2F)cc1 (centres undefined)

>  <z-score>
0.0194 (inactive)

$$$$
>  <molecule>
CN(C)CCCNC(=O)[C@@H]1c2ccccc2C(=O)N(Cc2ccccc2)[C@H]1c1ccc(CO)cc1

>  <z-score>
0.115 (inactive)

$$$$
>  <molecule>
COCCNC(=O)OCC1CCCC2(CC(OC(=O)NCCc3ccc(F)cc3)CC(CCC(=O)N[C@@H](C)C(=O)OC)O2)O1 (some centres undefined)

>  <z-score>
0.104 (inactive)

$$$$
>  <molecule>
CO[C@H]1O[C@H](CO)[C@@H](OC(=O)Nc2ccc(C#N)cc2)[C@H](OC(=O)c2cc3ccccc3[nH]2)[C@H]1OC(=O)c1cc2ccccc2[nH]1

>  <z-score>
-2.49 (inactive)

$$$$
>  <molecule>
N#Cc1ccc(NN2C(C(O)c3cccc4ccccc34)C=CC3C(=O)N(c4ccccc4)C(=O)C32)cc1 (centres undefined)

>  <z-score>
0.242 (inactive)

$$$$
>  <molecule>
CC(C)NC(=O)[C@@]1(c2ccc([N+](=O)[O-])cc2)CC(=O)N(CC23CC4CC(CC(C4)C2)C3)[C@@H]1c1ccc(CO)cc1I

>  <z-score>
0.151 (inactive)

$$$$

Okay, next one:
Memo: COC(=O)[C@]1(CO)N=C(c2ccc(OCCCO)cc2)O[C@@H]1c1ccccc1N=[N+]=[N-] , reported z-score: -0.726 (inactive)

Values from PubChem BioAssay
